Provide the recorded Population Mitotic Cells (%) for the entries that follow.
- Test system: HEK-293T
- assay.remarks: Multiplex assay against HEK293T
- Assay type: toxicity, cell-based
- conditions.used: human, 48 h, 10 µM, compound concentration 10 uM, replicate 1
Give just the numeric value; % need not be written.

Q: Recorded Population Mitotic Cells (%) for `S=C(NCCCc1c[nH]cn1)NCCCN(Cc1ccc(Cl)c(Cl)c1)c1ccc(Br)cn1` , please?
A: 28

Q: Recorded Population Mitotic Cells (%) for `Cl.O=c1c2cccn2c2ccccc2n1CCCN1CCC(c2ccc(Cl)cc2)CC1` , please?
A: 17

Q: Recorded Population Mitotic Cells (%) for `CN1CCN(C(=O)C(C)(C)c2ccc(C(=O)Nc3cn4cc(-c5ccncc5)ccc4n3)cc2)CC1` , please?
A: 7

Q: Recorded Population Mitotic Cells (%) for `C=C1/C(=C\C=C2/CCC[C@]3(C)[C@@H]([C@H](C)/C=C/[C@H](C)C(C)C)CC[C@@H]23)C[C@@H](O)C[C@@H]1O` , please?
A: 57

Q: Recorded Population Mitotic Cells (%) for `Cc1cc(C)c(S(=O)(=O)N(Cc2ccc(-c3cccc(S(C)(=O)=O)c3)cc2)Cc2ccc(C(F)(F)F)o2)c(C)c1` , please?
A: 54

Q: Recorded Population Mitotic Cells (%) for `Cl.O=C(c1ccc(Nc2nccc(-c3cc4ccccc4s3)n2)cc1)N1CCC(N2CCCC2)CC1` , please?
A: 17

Q: Recorded Population Mitotic Cells (%) for `CCN1CCN(Cc2ccc(Nc3ncc(F)c(-c4cc(F)c5nc(C)n(C(C)C)c5c4)n3)nc2)CC1.CS(=O)(=O)O` , please?
A: 19

Q: Recorded Population Mitotic Cells (%) for `Cc1ccc(C(=O)Nc2cccc(C(F)(F)F)c2)cc1Nc1nc(-c2cccnc2)nc2c1cnn2C` , please?
A: 13
